# Study system: UniProtKB P04150
# Sequence (P04150 whole entry): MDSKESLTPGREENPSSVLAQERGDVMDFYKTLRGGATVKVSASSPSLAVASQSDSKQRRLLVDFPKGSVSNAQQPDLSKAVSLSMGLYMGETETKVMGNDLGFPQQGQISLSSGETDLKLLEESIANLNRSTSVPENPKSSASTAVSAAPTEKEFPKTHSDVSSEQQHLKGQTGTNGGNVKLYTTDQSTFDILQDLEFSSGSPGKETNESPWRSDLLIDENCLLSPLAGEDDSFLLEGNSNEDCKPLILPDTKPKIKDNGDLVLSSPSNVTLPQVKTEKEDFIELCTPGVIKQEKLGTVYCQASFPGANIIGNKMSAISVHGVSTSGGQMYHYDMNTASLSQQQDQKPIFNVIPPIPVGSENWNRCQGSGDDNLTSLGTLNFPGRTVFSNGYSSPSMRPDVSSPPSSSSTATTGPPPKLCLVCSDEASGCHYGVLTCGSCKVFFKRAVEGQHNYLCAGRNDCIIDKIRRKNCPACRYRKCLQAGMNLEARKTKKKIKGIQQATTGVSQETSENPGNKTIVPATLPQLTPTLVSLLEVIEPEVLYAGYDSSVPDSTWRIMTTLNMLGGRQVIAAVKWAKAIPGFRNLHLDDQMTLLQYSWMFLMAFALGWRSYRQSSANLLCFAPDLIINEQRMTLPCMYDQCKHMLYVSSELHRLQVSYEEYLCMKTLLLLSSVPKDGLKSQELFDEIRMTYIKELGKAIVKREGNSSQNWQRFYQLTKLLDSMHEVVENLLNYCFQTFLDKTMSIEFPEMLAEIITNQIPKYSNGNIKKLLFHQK
# Method: Antagonist activity at human glucocorticoid receptor-alpha expressed in HEK293 cells measured after 24 hrs by luciferase reporter gene assay
Assay metric: pIC50
A value of pIC50 is the negative decimal logarithm of a concentration given in moles per litre.

Challenge: Entry under review: O=S(=O)(Nc1ccc(Oc2ccccc2)cc1)c1cccc(C(F)(F)F)c1 . Reported pIC50?
Response given: 4.92

###

# Study system: Androgen receptor (Homo sapiens)
# Sequence (P10275 whole entry): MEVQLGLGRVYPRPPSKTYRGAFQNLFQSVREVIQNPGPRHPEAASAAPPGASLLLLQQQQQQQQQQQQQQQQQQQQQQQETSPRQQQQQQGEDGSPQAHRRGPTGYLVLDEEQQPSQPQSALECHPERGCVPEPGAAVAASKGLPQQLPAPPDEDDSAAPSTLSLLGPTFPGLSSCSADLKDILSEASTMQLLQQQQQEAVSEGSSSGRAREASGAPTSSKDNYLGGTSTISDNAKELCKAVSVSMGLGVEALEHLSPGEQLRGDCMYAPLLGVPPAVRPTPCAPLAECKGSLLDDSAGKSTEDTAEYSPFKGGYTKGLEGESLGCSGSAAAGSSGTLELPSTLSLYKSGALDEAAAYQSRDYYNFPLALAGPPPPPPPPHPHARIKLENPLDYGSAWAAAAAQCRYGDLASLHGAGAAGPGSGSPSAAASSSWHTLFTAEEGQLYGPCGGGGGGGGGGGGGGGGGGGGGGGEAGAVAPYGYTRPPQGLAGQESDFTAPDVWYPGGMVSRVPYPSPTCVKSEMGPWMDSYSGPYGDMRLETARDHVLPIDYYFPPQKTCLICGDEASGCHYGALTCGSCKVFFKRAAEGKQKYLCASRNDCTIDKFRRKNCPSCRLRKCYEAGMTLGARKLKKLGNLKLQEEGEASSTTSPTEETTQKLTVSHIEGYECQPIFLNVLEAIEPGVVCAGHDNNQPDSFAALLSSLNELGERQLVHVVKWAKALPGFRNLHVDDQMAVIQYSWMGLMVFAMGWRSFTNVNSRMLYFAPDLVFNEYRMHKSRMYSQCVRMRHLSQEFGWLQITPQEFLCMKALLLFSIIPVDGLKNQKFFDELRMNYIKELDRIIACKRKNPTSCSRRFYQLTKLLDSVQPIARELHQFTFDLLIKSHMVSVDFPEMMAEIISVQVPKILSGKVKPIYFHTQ
# Method: Antagonist activity at human AR expressed in HEK293 cells measured after 24 hrs by luciferase reporter gene assay
Assay metric: IC50 (µM)
The response must be a number in µM with no trailing unit.

Challenge: # IC50 lookup, item O=S(=O)(Nc1ccc(Oc2ccccc2)cc1)c1cccc(C(F)(F)F)c1
Response given: 5.3

###

# Study system: Progesterone receptor (Homo sapiens)
# Method: Antagonist activity at progesterone receptor in human T47D cells incubated for 24 hrs in presence of P4 by alkaline phosphatase assay
# Type: cell-based
Binary label based on IC50 with cut-off 800 nM: below gives Condition met, not below gives Condition not met.

Challenge: IC50 strictly < 800 nM for this compound? O=S(=O)(c1cccc(Cl)c1)N(Cc1ccccc1)c1ccc(Oc2ccccc2)cc1
Response given: Condition not met

###

# Study system: Estrogen receptor beta (Homo sapiens, UniProt Q92731)
# Sequence (Q92731 whole entry, the tested form may be a part): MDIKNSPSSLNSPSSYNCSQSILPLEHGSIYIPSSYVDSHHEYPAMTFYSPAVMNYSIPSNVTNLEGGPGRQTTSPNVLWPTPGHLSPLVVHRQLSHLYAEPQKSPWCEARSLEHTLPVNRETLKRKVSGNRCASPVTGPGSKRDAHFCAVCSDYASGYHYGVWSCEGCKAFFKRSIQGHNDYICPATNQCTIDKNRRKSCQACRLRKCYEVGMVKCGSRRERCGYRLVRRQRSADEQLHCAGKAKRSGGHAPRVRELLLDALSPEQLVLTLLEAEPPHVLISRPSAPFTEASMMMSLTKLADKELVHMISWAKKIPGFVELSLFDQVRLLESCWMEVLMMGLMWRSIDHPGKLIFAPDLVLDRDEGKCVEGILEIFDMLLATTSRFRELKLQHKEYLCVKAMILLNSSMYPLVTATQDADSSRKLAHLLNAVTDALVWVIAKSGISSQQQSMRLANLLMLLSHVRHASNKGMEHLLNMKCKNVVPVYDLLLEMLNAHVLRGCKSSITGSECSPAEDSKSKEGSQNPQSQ
# Method: Antagonist activity at human Gal4-tagged estrogen receptor-beta LBD expressed in HEK293 cells measured after 24 hrs by luciferase reporter gene assay
Assay metric: pIC50
Keep in mind that pIC50 stands for -log10 of concentration in molar terms.

Challenge: Look up pIC50 for this compound: O=S(=O)(Nc1ccc(Oc2ccccc2)cc1)c1cccc(C(F)(F)F)c1
Response given: 4.64

###

Here the recorded IC50 is given for each entry.
# Study system: UniProtKB P06401
# Method: Displacement of [1,2,6,7-3H]-PG from recombinant human GST-tagged PR-LBD (657 to 933 residues) expressed in baculovirus infected insect cells measured after 24 hrs by liquid scintillation counting method
Answer format: numeric, nM implied, no suffix.

Some compounds with known IC50 results, for comparison:
1. O=S(=O)(Nc1ccc(Oc2ccccc2)cc1)c1cccc(F)c1 | 310
2. O=[N+]([O-])c1cccc(S(=O)(=O)Nc2ccc(Oc3ccccc3)cc2)c1 | 140
3. O=S(=O)(Nc1ccc(-c2ccccc2)cc1)c1cccc(Cl)c1 | 110

Challenge: Fill in the recorded IC50 for this compound, with UniProtKB P06401 as test system: O=S(=O)(Nc1ccc(Oc2ccccc2)cc1)c1cccc(Br)c1
Response given: 47

Challenge: Give UniProtKB P06401 IC50 for O=S(=O)(Nc1ccc(Oc2ccccc2)cc1)c1cccc(C(F)(F)F)c1
Response given: 40

Challenge: Request - read-out IC50 | tested on UniProtKB P06401 | compound O=S(=O)(Nc1ccc(Oc2ccccc2)cc1)c1cccc(Cl)c1
Response given: 62

###

Listed here are compounds together with their documented pIC50.
# Study system: Progesterone receptor (Homo sapiens, UniProt P06401)
# Sequence (P06401 whole entry): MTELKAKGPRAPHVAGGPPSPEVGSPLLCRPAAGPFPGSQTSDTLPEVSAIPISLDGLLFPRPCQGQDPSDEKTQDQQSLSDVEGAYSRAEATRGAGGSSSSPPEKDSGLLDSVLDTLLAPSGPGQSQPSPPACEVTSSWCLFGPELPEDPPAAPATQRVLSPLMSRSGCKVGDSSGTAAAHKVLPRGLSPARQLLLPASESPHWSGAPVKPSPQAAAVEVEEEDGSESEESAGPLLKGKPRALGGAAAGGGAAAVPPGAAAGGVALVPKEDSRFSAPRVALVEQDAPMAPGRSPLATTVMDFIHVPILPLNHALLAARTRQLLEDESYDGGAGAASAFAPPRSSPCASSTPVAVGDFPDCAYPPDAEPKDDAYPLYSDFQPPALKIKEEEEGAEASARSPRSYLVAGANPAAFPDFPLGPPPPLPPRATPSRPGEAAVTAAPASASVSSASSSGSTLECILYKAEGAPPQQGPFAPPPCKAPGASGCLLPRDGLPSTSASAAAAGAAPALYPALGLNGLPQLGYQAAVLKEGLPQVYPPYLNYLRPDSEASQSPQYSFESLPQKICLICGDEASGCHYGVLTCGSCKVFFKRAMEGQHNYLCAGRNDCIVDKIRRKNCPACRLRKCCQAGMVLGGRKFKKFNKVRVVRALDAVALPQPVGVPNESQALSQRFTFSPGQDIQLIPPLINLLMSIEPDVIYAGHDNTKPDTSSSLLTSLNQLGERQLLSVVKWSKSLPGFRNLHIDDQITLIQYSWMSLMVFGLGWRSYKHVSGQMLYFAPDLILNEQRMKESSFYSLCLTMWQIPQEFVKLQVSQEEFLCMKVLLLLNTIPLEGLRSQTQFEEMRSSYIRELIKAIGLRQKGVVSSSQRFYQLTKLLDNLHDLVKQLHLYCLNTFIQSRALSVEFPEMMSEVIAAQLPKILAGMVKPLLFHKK
# Method: Antagonist activity at progesterone receptor in human T47D cells incubated for 24 hrs in presence of P4 by alkaline phosphatase assay
# Format: cell-based
As a rule, pIC50 stands for the negative log10 of the concentration, concentration in M.

1) COc1cccc(C(=O)Nc2ccc(Oc3ccc(O)cc3)c(C)c2)c1 | 5.30
2) O=S(=O)(Nc1ccc(Oc2ccccc2)cc1)c1cccc(Br)c1 | 6.96
3) COc1cccc(S(=O)(=O)N(Cc2ccccc2)c2ccc(Oc3ccccc3)cc2)c1 | 5.59

Challenge: Query (compound): N#Cc1cccc(S(=O)(=O)Nc2ccc(Oc3ccccc3)cc2)c1 ; field requested: pIC50
Response given: 6.52

Challenge: Sample COc1cccc(Oc2ccc(NS(=O)(=O)c3cccc(Cl)c3)cc2)c1 — what was its pIC50?
Response given: 6.57

Challenge: Bench note: what pIC50 did O=S(=O)(Nc1ccc(Oc2ccccc2)cc1)c1cccc(Cl)c1Cl show?
Response given: 6.19

Challenge: Any idea what pIC50 was measured for O=S(=O)(Nc1ccc(Oc2ccccc2)cc1)c1ccc(Cl)c(Cl)c1 ?
Response given: 6.39

Challenge: // pIC50 lookup, key: O=S(=O)(c1ccccc1Cl)N(Cc1ccccc1)c1ccc(Oc2ccccc2)cc1
Response given: 5.66

Challenge: Which pIC50 value belongs to O=S(=O)(Nc1ccc(Oc2ccccc2)cc1)c1ccc2ccccc2c1 ?
Response given: 5.77

Challenge: So what does the record say about pIC50 for COc1cccc(Oc2ccc(NS(=O)(=O)c3cccc(OC)c3)cc2)c1 ?
Response given: 6.43

Challenge: // query pIC50 value for entry O=S(=O)(Nc1ccc(Oc2ccccc2)cc1)c1ccccc1
Response given: 6.28

Challenge: Entry COc1cccc(Oc2ccc(NS(=O)(=O)c3ccccc3)cc2)c1 has what pIC50?
Response given: 6.31

Challenge: Which pIC50 is reported for this compound? CN(c1ccc(Oc2ccccc2)cc1)S(=O)(=O)c1cccc(Cl)c1
Response given: 6.19

Challenge: Entry O=S(=O)(c1ccc(Cl)cc1)N(Cc1ccccc1)c1ccc(Oc2ccccc2)cc1 has what pIC50?
Response given: 5.52

Challenge: Dear colleague, I am looking for the recorded pIC50 of the following compound: COc1ccc(S(=O)(=O)Nc2ccc(Oc3ccccc3)cc2)cc1
Response given: 6.30

Challenge: Quick one: pIC50 for O=S(=O)(Nc1ccc(Oc2ccccc2)cc1)c1ccccc1Cl ?
Response given: 6.13

Challenge: For the compound O=C(Nc1ccc(Oc2ccccc2)cc1)c1ccccc1 , what pIC50 is on record?
Response given: 5.55

Challenge: Param item = O=S(=O)(Nc1ccc(OCc2ccccc2)cc1)c1cccc(Cl)c1 ; retrieve measured pIC50.
Response given: 6.09

Challenge: I am curious: what pIC50 value has been reported for CC(C)c1ccc(NS(=O)(=O)c2cccc(Cl)c2)cc1 ?
Response given: 6.29

Challenge: Form field: reported pIC50 of O=S(=O)(Nc1ccc(Oc2ccccc2)cc1)c1cccc(C(F)(F)F)c1
Response given: 7.48

Challenge: Quick check: pIC50 of O=S(=O)(Nc1ccccc1)c1cccc(Cl)c1 ?
Response given: 5.82

Challenge: Request the reported pIC50 associated with O=S(=O)(Nc1ccc(Oc2ccccc2)cc1)c1ccc(Cl)cc1
Response given: 6.17

Challenge: Look up pIC50: COc1cccc(S(=O)(=O)Nc2ccc(Oc3ccccc3)cc2)c1
Response given: 6.60

Challenge: # query: pIC50 of entry O=S(=O)(Nc1ccc(Oc2ccccc2)cc1)c1cc(Cl)c(Cl)cc1Cl
Response given: 5.80

Challenge: Item COc1cccc(S(=O)(=O)N(C)c2ccc(Oc3ccccc3)cc2)c1 has what recorded pIC50?
Response given: 6.33

###

# Study system: UniProt:P06401
# Method: Antagonist activity at progesterone receptor in human T47D cells incubated for 24 hrs in presence of P4 by alkaline phosphatase assay
# Type: cell-based
Assay metric: pIC50
Please express pIC50 as -log10 of the molar concentration.

Below: 4 molecules and their reported pIC50.
1. O=C(c1ccccc1)c1ccc(NS(=O)(=O)c2cccc(Cl)c2)cc1 | 5.22
2. O=S(=O)(Nc1ccc(Oc2ccccc2)cc1)c1cccc(Cl)c1 | 6.77
3. COc1ccc(S(=O)(=O)N(C)c2ccc(Oc3ccccc3)cc2)cc1 | 6.00
4. COc1ccc(NS(=O)(=O)c2cccc(Cl)c2)cc1 | 6.09

Challenge: Data request, read-out pIC50, for O=S(=O)(Cc1ccccc1)Nc1ccc(Oc2ccccc2)cc1
Response given: 5.80

Challenge: Could you share which pIC50 value was measured for O=[N+]([O-])c1cccc(S(=O)(=O)Nc2ccc(Oc3ccccc3)cc2)c1 ?
Response given: 6.85

Challenge: What value of pIC50 has been reported for the following molecule? CN(c1ccc(Oc2ccccc2)cc1)S(=O)(=O)c1ccc(Cl)cc1
Response given: 6.02

Challenge: Any idea what its pIC50 is? The molecule is COc1cccc(S(=O)(=O)Nc2ccc(Oc3ccc(O)cc3)c(C)c2)c1
Response given: 5.70

Challenge: Using the record for O=S(=O)(Nc1ccc(Oc2ccccc2)cc1)c1cccc2ccccc12 , report its pIC50.
Response given: 6.72

Challenge: // returns reported pIC50 for input O=S(=O)(Nc1ccc(-c2ccccc2)cc1)c1cccc(Cl)c1
Response given: 6.48

###

This section presents compounds with their documented pIC50 values.
# Study system: Progesterone receptor (Homo sapiens, UniProt P06401)
# Method: Antagonist activity at progesterone receptor in human T47D cells incubated for 24 hrs in presence of P4 by alkaline phosphatase assay
# Assay type: cell-based
Lab note — pIC50 values are minus log10 of concentrations in M.

Examples with answers:
1. O=S(=O)(Nc1ccc(Oc2ccccc2)cc1)c1cccc(F)c1 | 6.66
2. CS(=O)(=O)Nc1ccc(Oc2ccccc2)cc1 | 5.66
3. COc1cccc(Oc2ccc(NC(=O)c3ccccc3)cc2)c1 | 5.42
4. CN(c1ccc(Oc2ccccc2)cc1)S(=O)(=O)c1ccccc1Cl | 6.41
5. O=S(=O)(Nc1ccc(Cc2ccccc2)cc1)c1cccc(Cl)c1 | 6.35

Challenge: // pIC50 lookup, key: O=S(=O)(Nc1ccc(Oc2ccccc2)cc1)c1cc(Cl)cc(Cl)c1
Response given: 6.49

Challenge: # input compound: Cc1ccc(NS(=O)(=O)c2cccc(Cl)c2)cc1 ; wanted: its pIC50
Response given: 5.89

Challenge: So what's the measured pIC50 for this one? O=S(=O)(Nc1ccc(Br)cc1)c1cccc(Cl)c1
Response given: 5.89

Challenge: What value of pIC50 has been recorded for this entry: COc1ccc(S(=O)(=O)N(Cc2ccccc2)c2ccc(Oc3ccccc3)cc2)cc1
Response given: 5.46
